From: patent US6914045B2

- System: Enterococcus sp.
- PROTOCOL DESCRIPTION: in vitro antibacterial evaluation, MIC by broth dilution
- Assay type: cell-based
- ASSAY CONDITIONS: broth dilution, 18 hours at 35° C.
MEASUREMENT LABEL: MIC Enterococcus faecalis (GC 4554)

Previously resolved entries follow.
CC(c1ccccc1)C1NC(=O)CNC(=O)C(CO)NC(=O)C(C(O)C2CNC(=N)N2C2OC(CO)C(O)C3OC(C)(C)OC32)NC(=O)C(C(O)C2CNC(=N)N2)NC(=O)C(Cc2ccc(OC3OC(CO)C(OC4OC(CO)C(O)C(O)C4O)C4OC(C)(C)OC34)cc2)NC1=O (stereo not shown) = >128 µg/mL
CN=C1N(C)CC(CC2NC(=O)C(Cc3ccc(OC4OC(CO)C(OC5OC(CO)C(O)C(O)C5O)C(O)C4O)cc3)NC(=O)C(C(C)c3ccccc3)NC(=O)CNC(=O)C(CO)NC(=O)C(CC3CN(C)C(=NC)N3C3OC(CO)C(O)C(O)C3O)NC2=O)N1C (stereo not shown) = >128 µg/mL
CC(c1ccccc1)C1NC(=O)CNC(=O)C(CO)NC(=O)C(C(O)C2CNC(=NCc3ccccc3)N2C2OC(CO)C(O)C(O)C2O)NC(=O)C(C(O)C2CNC(=N)N2)NC(=O)C(Cc2ccc(OC3OC(CO)C(OC4OC5COC6(OC5C(O)C4O)C4CC5CC(C4)CC6C5)C(O)C3O)cc2)NC1=O (stereo not shown) = 4 to 32 µg/mL

[ask] For the compound CC(c1ccccc1)C1NC(=O)CNC(=O)C(CO)NC(=O)C(C(O)C2CN(CCCCCCCCCCC(=O)O)C(=N)N2C2OC(CO)C(O)C(O)C2O)NC(=O)C(C(O)C2CNC(=N)N2)NC(=O)C(Cc2ccc(OC3OC(CO)C(OC4OC(CO)C(O)C(O)C4O)C(O)C3O)cc2)NC1=O (stereo not shown) , what MIC Enterococcus faecalis (GC 4554) is on record?
[reply] >128 µg/mL

* * *

- System: Streptococcus sp.
- PROTOCOL DESCRIPTION: in vitro antibacterial evaluation, MIC by broth dilution
- Format: cell-based
- ASSAY CONDITIONS: broth dilution, 18 hours at 35° C.
MEASUREMENT LABEL: MIC Streptococcus agalactiae (GC 4564)

// below: answered molecules
CC(c1ccccc1)C1NC(=O)CNC(=O)C(CO)NC(=O)C(C(O)C2CNC(=N)N2C2OC(CO)C(O)C(O)C2O)NC(=O)C(C(O)C2CNC(=N)N2)NC(=O)C(Cc2ccc(OC3OC(CO)C(OC4OC(COC(=O)C(c5ccccc5)c5ccccc5)C(O)C(O)C4O)C(O)C3O)cc2)NC1=O (stereo not drawn) [Example 96c] = <0.06 µg/mL
CC(c1ccccc1)C1NC(=O)CNC(=O)C(CO)NC(=O)C(C(O)C2CNC(=N)N2C2OC(CO)C(O)C(O)C2O)NC(=O)C(C(O)C2CNC(=N)N2)NC(=O)C(Cc2ccc(OC3OC(CO)C(OC4OC(CO)C(O)C(OCc5ccc(OCc6ccccc6)cc5)C4O)C(O)C3O)cc2)NC1=O (stereo not drawn) [Example 231c] = <0.12 µg/mL

We now examine a further molecule.
[ask] Endpoint output: MIC Streptococcus agalactiae (GC 4564) of N=C1NCC(C(O)C2NC(=O)C(CC3CCC(OC4OC(CO)C(OC5OC6COC7(OC6C(O)C5O)C5CC6CC(C5)CC7C6)C(O)C4O)CC3)NC(=O)C(CC3CCCCC3)NC(=O)CNC(=O)C(CO)NC(=O)C(C(O)C3CNC(=N)N3C3OC(CO)C(O)C(O)C3O)NC2=O)N1 (single isomer, unassigned) . Value?
[reply] >64 µg/mL
